Biological target: T1, toll-like receptor 10, extracellular domain (UniProt Q9BXR5 20-576)
T1 construct: toll-like receptor 10 (TLR10), extracellular domain; also called TLR10; TLR10 cell surface receptor
T1 sequence (looked up): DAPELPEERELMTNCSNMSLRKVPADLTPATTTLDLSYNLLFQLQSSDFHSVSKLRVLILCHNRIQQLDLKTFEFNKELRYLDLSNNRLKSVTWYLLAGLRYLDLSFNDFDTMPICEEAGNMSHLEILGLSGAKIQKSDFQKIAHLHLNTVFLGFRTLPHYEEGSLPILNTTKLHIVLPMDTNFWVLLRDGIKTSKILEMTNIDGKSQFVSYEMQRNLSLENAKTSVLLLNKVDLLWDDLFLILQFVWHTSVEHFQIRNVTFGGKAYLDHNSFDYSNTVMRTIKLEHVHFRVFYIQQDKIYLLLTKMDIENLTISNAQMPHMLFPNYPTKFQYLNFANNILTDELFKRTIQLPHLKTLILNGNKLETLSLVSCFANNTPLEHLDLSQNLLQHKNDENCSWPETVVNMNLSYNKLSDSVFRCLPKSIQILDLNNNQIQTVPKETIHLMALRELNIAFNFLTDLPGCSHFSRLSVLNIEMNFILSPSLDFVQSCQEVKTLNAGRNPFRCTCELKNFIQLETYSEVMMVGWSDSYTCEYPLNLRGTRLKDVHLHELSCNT
Test: SPR; surface plasmon resonance of synthetic thiopeptides on their target protein; conditions in S.I. 2.10 (not shown)
Details: both partners purified
*1 amine or outer side, *2 acyl side, *3 side chain or, on linkers, in order; H or OH if unused. Where no end group is shown, it is not given here. [ ]: non-standard residue; d: D form. hGln = L-homoglutamine, NC(=O)CCC[C@H](N[*:1])C(=O)[*:2]; pyridine‑bisazole = not defined here; Nle = CCCC[C@H](N)C(=O)O; Dha = C=C(N)C(=O)O
Field: Kd. Provide a value for each of the binders that follow.
Numbers only, in nM.

Example entries and their recorded answers appear below.
SWT[Nle]LFRLQSKLAISCSC (bridge (positions not given here) via pyridine‑bisazole; reading uncertain; also: macrocycle closed through a pyridine-bisazole moiety, oxazole to thiazole change) [thiopeptide TL6 (synthetic)] ... 630
SW[hGln]ISFWLQRKVAFSCSC (bridge (positions not given here) via pyridine‑bisazole; reading uncertain; also: macrocycle closed through a pyridine-bisazole moiety, oxazole to thiazole change) [thiopeptide TL3 (synthetic)] ... 890
SWALLIKQIN[Nle]LY[hGln]SCSC (bridge (positions not given here) via pyridine‑bisazole; reading uncertain; also: macrocycle closed through a pyridine-bisazole moiety, oxazole to thiazole change) [thiopeptide TL17 (synthetic)] ... 360
SWTIRFTNQNKIAFSCSC (bridge (positions not given here) via pyridine‑bisazole; reading uncertain; also: macrocycle closed through pyridine-bisazole moiety, oxazole to thiazole change) [thiopeptide TL4 (synthetic)] ... 680

Okay, now this binder:
Could you share which Kd value was measured for SWIGRV[Nle]IK[Dha]SSCSC (bridge (positions not given here) via pyridine‑bisazole; not fully specified (residue 11); reading uncertain; also: Ser11 is an oxazole, macrocycle closed through a pyridine-bisazole moiety) [thiopeptide TL19 (synthetic)] ?
570
